Tested on: Cladosporium cucumerinum
Protocol summary: Antifungal activity against Cladosporium cucumerinum
Assay type: functional, organism-based
Activity calls are given as the source filed them. No cut-off for these calls is given here.
Observable: Activity

Given smiles | Result value
COC(=O)[C@@]12CC(=O)[C@@H](C(C)C)CC(=O)[C@@H](C)CCC[C@@H](C)/C=C3\O[C@@](C)(C[C@@H]31)/C1=C/C[C@](C)(O)[C@H]3CC[C@@](C)(O3)[C@H](O)CC/C(C)=C/[C@H]12 | inactive
COC(=O)[C@@]12CC(=O)[C@@H](C(C)C)CC(=O)[C@@H](C)CCC[C@@H](C)CC(=O)[C@@H]1CC(C)=C1[C@H](O)C[C@](C)(Cl)[C@H]3CC[C@@](C)(O3)[C@H](O)CC/C(C)=C/[C@H]12 | inactive
COC(=O)[C@@]12CC(=O)[C@@H](C(C)C)CC(=O)[C@@H](C)CCC[C@@H](C)CC(=O)[C@@H]1CC(C)=C1[C@H](O)C[C@@](C)(Cl)[C@@H](O)CC[C@@]3(C)O[C@@H]3CC/C(C)=C/[C@H]12 | inactive

* * *

Test system: Cladosporium cucumerinum
Protocol summary: Antifungal activity against Cladosporium cucumerinum
Assay type: functional, organism-based
Calls of active or inactive are those of the source. No cut-off for these calls is given here.

Given smiles | Activity
C=C1CC[C@@H]2O[C@@H]1CC/C(C)=C/[C@@H]1C(=C(C)C[C@H]3C(=O)C[C@H](C)CCC[C@H](C)C(=O)C[C@H](C(C)C)C(=O)C[C@@]13C(=O)OC)[C@H](O)C[C@@]2(C)O | inactive
COC(=O)/C1=C/C(=O)C[C@H](C)CCC[C@H](C)C(=O)C[C@H](C(C)C)C(=O)C1 | inactive
COC(=O)[C@@]12CC(=O)[C@@H](C(C)C)CC(=O)[C@@H](C)CCC[C@@H](C)CC(=O)[C@@H]1CC(C)=C1[C@H](O)C[C@@]3(C)O[C@@H]3CC[C@@]3(C)O[C@@H]3CC/C(C)=C/[C@H]12 | inactive
